Data provenance is ChEMBL document CHEMBL1145200.

Tested on: Human immunodeficiency virus 1
assay_protocol: In vitro inhibitory concentration against HIV-1 Y181C mutant strain
Type: functional, organism-based
measured_property: pIC50
Value format note: pIC50 is -log10 of concentration (mol/L); just state the number.

Worked examples follow.
CCc1c(CO)nc(O)c(N(C)C)c1C(=O)c1cc(C)cc(C)c1	7.14
CCc1c(C)[nH]c(=O)c(N(C)CCCO)c1Cc1cccc(C)c1	5.80
CCc1c(C)[nH]c(=O)c(N(C)C)c1C(=O)c1cc(C)cc(C)c1	7.20
CCc1c(C)[nH]c(=O)c(NC)c1Cc1cc(C)cc(C)c1	6.00
CCc1c(C)[nH]c(=O)c(N(C)CCCC#N)c1Cc1cccc(C)c1	5.70
CCNc1c(Cc2cc(C)cc(C)c2)c(CC)c(C)[nH]c1=O	4.00
CCCC(=O)Nc1c(Cc2cc(C)cc(C)c2)c(CC)c(C)[nH]c1=O	4.00
CCc1c(C)[nH]c(=O)c(N(C)C)c1Cc1cc(C)cc(C)c1	7.00

[ask] What value of pIC50 has been reported for the following compound? CCc1c(C)[nH]c(=O)c(-n2cccc2)c1Cc1cc(C)cc(C)c1
[reply] 5.90

[ask] Query: pIC50; subject: CCc1c(C)[nH]c(=O)c(N(C)CCCCCO)c1Cc1cccc(C)c1
[reply] 5.80

[ask] Record request: pIC50 value, item CCc1c(C)[nH]c(=O)c(N(C)CC)c1Cc1cccc(/C=C/C#N)c1
[reply] 7.49
